assay_explanation: Octanol-water partition coefficient, logD of the compound at pH 6.5
Assay type: physicochemical
test_readout: logD
Output spec: single numeric token, no unit.

Query string: Entry under review: COc1ccc2c(c1)CC(c1c[nH]c3ccc(OC)cc13)N2 (stereo unspecified) . Reported logD?
Result string: 3.3

---

assay_explanation: Dissociation constant, pKa of compound
Type: physicochemical
test_readout: pKa
Output spec: single numeric token, no unit.

Query string: Entry under review: COc1ccc2c(c1)CC(c1c[nH]c3ccc(OC)cc13)N2 (stereo unspecified) . Reported pKa?
Result string: 5.26
